# TGT: T1, Recombinant Human DLL4 (delta-like protein 4) (human, UniProt Q9NR61 27-524)
# T1 construct: Bought recombinant human DLL4 (R&D Systems Cat#1506-D4/CF); also called rHuman DLL4; Delta-like 4
# TEST SUMMARY: ELISA, DLL4 coated on plate, Fab at 200 nM
ENDPOINT: ELISA signal

- Fab VH1-46_IGHD6-6*01_IGHJ1*01 S102A/S103P/S104F/H111F & L6_IGKJ1*01 S31H (Fab, V domains shown, Tested as a Fab; also called APFF & S31H) VH: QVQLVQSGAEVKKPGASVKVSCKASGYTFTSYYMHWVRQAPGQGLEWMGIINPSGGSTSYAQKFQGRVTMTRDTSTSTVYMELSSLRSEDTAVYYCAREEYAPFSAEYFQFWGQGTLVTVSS VL: EIVLTQSPATLSLSPGERATLSCRASQSVSHYLAWYQQKPGQAPRLLIYDASNRATGIPARFSGSGSGTDFTLTISSLEPEDFAVYYCQQRSNWPPWTFGQGTKVEIKR: 0.11
- Fab VH1-46_IGHD6-6*01_IGHJ1*01 S102A/S103P/S104F/H111F & L6_IGKJ1*01 S30D (Fab, V domains shown, Tested as a Fab; also called APFF & S30D) VH: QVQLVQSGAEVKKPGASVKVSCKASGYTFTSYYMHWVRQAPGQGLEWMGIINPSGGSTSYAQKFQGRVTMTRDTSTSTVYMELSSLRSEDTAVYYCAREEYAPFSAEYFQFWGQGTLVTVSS VL: EIVLTQSPATLSLSPGERATLSCRASQSVDSYLAWYQQKPGQAPRLLIYDASNRATGIPARFSGSGSGTDFTLTISSLEPEDFAVYYCQQRSNWPPWTFGQGTKVEIKR: 0.11
- Fab VH1-46_IGHD6-6*01_IGHJ1*01 S102A/S103P/S104F/H111F & L6_IGKJ1*01 S28H (Fab, V domains shown, Tested as a Fab; also called APFF & S28H) VH: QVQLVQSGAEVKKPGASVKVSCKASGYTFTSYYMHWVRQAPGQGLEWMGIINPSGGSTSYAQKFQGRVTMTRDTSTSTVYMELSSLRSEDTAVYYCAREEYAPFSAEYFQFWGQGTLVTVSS VL: EIVLTQSPATLSLSPGERATLSCRASQHVSSYLAWYQQKPGQAPRLLIYDASNRATGIPARFSGSGSGTDFTLTISSLEPEDFAVYYCQQRSNWPPWTFGQGTKVEIKR: 0.14
- Fab VH1-46_IGHD6-6*01_IGHJ1*01 S102A/S103P/S104F/H111F & L6_IGKJ1*01 S28N (Fab, V domains shown, Tested as a Fab; also called APFF & S28N) VH: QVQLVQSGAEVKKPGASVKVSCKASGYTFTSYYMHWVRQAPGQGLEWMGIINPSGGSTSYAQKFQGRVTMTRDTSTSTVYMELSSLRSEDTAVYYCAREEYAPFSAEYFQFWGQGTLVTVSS VL: EIVLTQSPATLSLSPGERATLSCRASQNVSSYLAWYQQKPGQAPRLLIYDASNRATGIPARFSGSGSGTDFTLTISSLEPEDFAVYYCQQRSNWPPWTFGQGTKVEIKR: 0.17

Attribution: patent US20120316071A1
